Record form. Attribute: solubility. Fill in for each entry.
# measurement protocol: physchem
# condition notes: water, 25 °C, thermodynamic from solid

Looking up `CNC(=O)c1ccc(-c2cnc3ncc(Cc4ccc5ncccc5c4)n3n2)cc1F.Cl.Cl` , I see its solubility listed as ~4900 µg/mL

Looking up CNC(=O)c1ccc(-c2cnc3ncc(Cc4ccc5ncccc5c4)n3n2)cc1F.O=S(=O)(O)c1ccccc1.O=S(=O)(O)c1ccccc1 [dibenzenesulfonic acid salt] , I see its solubility listed as ~3900 µg/mL

* * *

# measurement protocol: physchem
# condition notes: 0.1 N aqueous HCl, 25 °C, simulated gastric fluid, thermodynamic from solid
measure name: solubility

Looking up CNC(=O)c1ccc(-c2cnc3ncc(Cc4ccc5ncccc5c4)n3n2)cc1F.O=S(=O)(O)c1ccccc1.O=S(=O)(O)c1ccccc1 [dibenzenesulfonic acid salt] , I see its solubility listed as ≥ 29 mg/mL

Looking up CNC(=O)c1ccc(-c2cnc3ncc(Cc4ccc5ncccc5c4)n3n2)cc1F.Cl.Cl [Compound 21] , I see its solubility listed as ~24 mg/mL
